Source of measurements: ChEMBL document CHEMBL2396588

Endpoint: IC50. System: Acetylcholinesterase (Homo sapiens). Items follow.

# example entries with known answers
CN(C)CCCN(c1nc2ccccc2[nH]1)c1nc2ccccc2[nH]1: 59.7 µM
CCN(CC)CCCNc1nc2ccccc2[nH]1: > 100 µM

Answer for every listed entry: what is its IC50? The entries follow.
1. CCCCNc1nc2ccccc2[nH]1
2. c1ccc(Nc2nc3ccccc3[nH]2)nc1
3. c1ccc(CCCNc2nc3ccccc3[nH]2)cc1
4. CCCCNc1nc2ccccc2n1C
5. COCCNc1nc2ccccc2[nH]1
6. c1ccc2[nH]c(NC34CC5CC(CC(C5)C3)C4)nc2c1

OUT:
> 100 µM
> 100 µM
> 100 µM
> 100 µM
> 100 µM
> 100 µM

---

Kindly supply the reported IC50 values for the records listed here.
- assay-target: Acetylcholinesterase (Homo sapiens, UniProt P22303)
- Sequence (P22303 whole entry): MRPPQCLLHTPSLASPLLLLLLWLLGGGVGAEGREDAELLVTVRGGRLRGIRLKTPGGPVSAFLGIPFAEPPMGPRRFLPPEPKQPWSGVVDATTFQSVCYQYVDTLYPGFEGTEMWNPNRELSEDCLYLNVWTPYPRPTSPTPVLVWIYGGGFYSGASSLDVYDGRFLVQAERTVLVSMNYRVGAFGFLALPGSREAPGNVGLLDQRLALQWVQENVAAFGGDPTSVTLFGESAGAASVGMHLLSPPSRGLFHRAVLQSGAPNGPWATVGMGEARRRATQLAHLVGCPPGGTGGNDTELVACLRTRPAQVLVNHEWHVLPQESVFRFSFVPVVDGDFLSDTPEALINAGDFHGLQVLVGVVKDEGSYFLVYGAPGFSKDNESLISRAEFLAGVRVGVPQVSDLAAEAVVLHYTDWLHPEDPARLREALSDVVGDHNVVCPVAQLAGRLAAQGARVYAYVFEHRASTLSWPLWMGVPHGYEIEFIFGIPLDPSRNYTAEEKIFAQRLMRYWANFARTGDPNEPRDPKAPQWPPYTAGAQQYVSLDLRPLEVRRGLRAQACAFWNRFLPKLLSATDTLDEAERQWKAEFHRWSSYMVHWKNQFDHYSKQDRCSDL
- assay-summary: Inhibition of human AchE using acetylthiocholine iodide as substrate incubated for 20 mins prior to substrate addition measured for 1 hr by Ellman's method

Some solved cases for reference:
c1ccc2c(c1)CCCN2c1nc2ccccc2[nH]1: > 100 µM
CC1CCCCN1c1nc2ccccc2[nH]1 (configuration not stated): 88.9 µM
c1ccc2[nH]c(N3CCCCC3)nc2c1: 59.2 µM
CC(C)(C)OC(=O)NCCNc1nc2ccccc2[nH]1: > 100 µM
NCCNc1nc2ccccc2[nH]1: > 100 µM

# map each compound to its IC50
1. CCCCN(C)c1nc2ccccc2n1C
2. CCCCN(C)c1nc2ccccc2[nH]1

OUT:
1: > 100 µM; 2: > 100 µM

---

- assay-summary: Cytotoxicity against human HepG2 cells assessed as cell viability at 100 uM after 48 hrs by MTT assay
- Format: cell-based
- experimental-parameters: HepG2 cells, read-out: Activity
readout-label: viability at 48 h, 100 µM (%)
Answers are plain numbers, in %.

The compound identified as CCCCNc1nc2ccccc2[nH]1 registered its viability at 48 h, 100 µM at 85.2

---

Entries with reported pIC50 on Cholinesterase (Homo sapiens, UniProt P06276)
Sequence (P06276 whole entry): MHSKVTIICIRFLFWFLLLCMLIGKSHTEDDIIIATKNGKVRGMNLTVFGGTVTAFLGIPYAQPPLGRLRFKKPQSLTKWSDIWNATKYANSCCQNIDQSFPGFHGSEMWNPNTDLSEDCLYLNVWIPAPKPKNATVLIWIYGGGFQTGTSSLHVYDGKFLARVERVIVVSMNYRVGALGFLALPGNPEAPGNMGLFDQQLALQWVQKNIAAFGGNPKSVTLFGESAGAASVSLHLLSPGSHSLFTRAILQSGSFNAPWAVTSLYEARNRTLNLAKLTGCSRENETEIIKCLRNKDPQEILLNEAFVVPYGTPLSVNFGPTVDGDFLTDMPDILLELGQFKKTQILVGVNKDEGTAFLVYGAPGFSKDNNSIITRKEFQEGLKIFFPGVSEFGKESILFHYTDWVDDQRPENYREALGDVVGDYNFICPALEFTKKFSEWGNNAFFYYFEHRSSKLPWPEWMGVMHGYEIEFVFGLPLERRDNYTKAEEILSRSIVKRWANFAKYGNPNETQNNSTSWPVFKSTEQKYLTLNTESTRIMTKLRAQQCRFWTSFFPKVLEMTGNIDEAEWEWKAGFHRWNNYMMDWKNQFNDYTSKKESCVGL
pIC50: −log10 of the molar value.

CC(C)(C)OC(=O)NCCNc1nc2ccccc2[nH]1: 4.14
c1ccc2[nH]c(NC34CC5CC(CC(C5)C3)C4)nc2c1: < 4.00
COCCNc1nc2ccccc2[nH]1: < 4.00
CCCCNc1nc2ccccc2n1C: < 4.00
c1ccc2c(c1)CCCN2c1nc2ccccc2[nH]1: < 4.00

// for each compound in input: emit pIC50
1. c1ccc(Nc2nc3ccccc3[nH]2)nc1
2. CCCCNc1nc2ccccc2[nH]1

OUT:
1. < 4.00
2. 4.21

---

Assignment: determine reported IC50 for the given compounds.
- assay-target: Cholinesterase (Homo sapiens)
- assay-summary: Inhibition of human BuChE using butyrylthiocholine iodide as substrate incubated for 20 mins prior to substrate addition measured for 1 hr by Ellman's method

Some entries whose results are on file:
CCCCN(C)c1nc2ccccc2[nH]1: > 100 µM
c1ccc(CCCNc2nc3ccccc3[nH]2)cc1: > 100 µM
NCCNc1nc2ccccc2[nH]1: > 100 µM
c1ccc2[nH]c(N3CCCCC3)nc2c1: 1.57 µM
CC1CCCCN1c1nc2ccccc2[nH]1 (stereo not drawn): 2.03 µM
CCCCN(C)c1nc2ccccc2n1C: > 100 µM

Give IC50 for all compounds that follow.
1. CN(C)CCCN(c1nc2ccccc2[nH]1)c1nc2ccccc2[nH]1
2. CCN(CC)CCCNc1nc2ccccc2[nH]1

OUT:
1. 2.26 µM
2. > 100 µM
